- TGT: F protein of human metapneumovirus strain JPS02-76 (type B1), on infectious virus (human metapneumovirus, strain JPS02-76 …, UniProt Q6WB98 19-539)
- EXPERIMENT: cell-based or functional assay
Rule: IC50, cell-to-cell spread inhibitory activity (LLC-MK2 cells stably expressing TMPRSS2) below 0.05 µg/mL gives yes, anything at or above gives no.

Query: Does this binder meet the criterion IC50, cell-to-cell spread inhibitory activity (LLC-MK2 cells stably expressing TMPRSS2) < 0.05 µg/mL? EV046147 (antibody, human IgG1, lambda, V domains shown) VH: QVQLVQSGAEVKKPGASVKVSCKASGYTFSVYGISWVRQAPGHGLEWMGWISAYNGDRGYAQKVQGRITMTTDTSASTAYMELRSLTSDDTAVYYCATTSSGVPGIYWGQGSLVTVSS VL: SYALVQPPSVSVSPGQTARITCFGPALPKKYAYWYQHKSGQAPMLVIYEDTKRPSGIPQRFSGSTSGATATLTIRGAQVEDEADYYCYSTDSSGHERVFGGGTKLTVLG
Reply: no

Query: API: query returns whether the binder falls strictly under 0.05 µg/mL in IC50, cell-to-cell spread inhibitory activity (LLC-MK2 cells stably expressing TMPRSS2). Query: EV046124 (antibody, human IgG1, lambda, V domains shown) VH: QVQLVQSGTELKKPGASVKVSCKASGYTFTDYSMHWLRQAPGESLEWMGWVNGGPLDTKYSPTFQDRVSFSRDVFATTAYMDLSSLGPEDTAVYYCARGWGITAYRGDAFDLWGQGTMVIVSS VL: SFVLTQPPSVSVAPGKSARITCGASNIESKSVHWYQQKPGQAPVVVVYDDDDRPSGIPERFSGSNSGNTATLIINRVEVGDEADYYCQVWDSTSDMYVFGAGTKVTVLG
Reply: yes

Query: Consider the binder EV046130 (antibody, human IgG1, lambda, V domains shown) VH: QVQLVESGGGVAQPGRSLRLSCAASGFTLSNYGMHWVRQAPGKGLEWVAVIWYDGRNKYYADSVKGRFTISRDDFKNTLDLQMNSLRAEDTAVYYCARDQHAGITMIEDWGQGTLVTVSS VL: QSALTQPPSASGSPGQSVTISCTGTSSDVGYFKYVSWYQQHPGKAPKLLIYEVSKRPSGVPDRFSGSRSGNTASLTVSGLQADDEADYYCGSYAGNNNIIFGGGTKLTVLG . Is its IC50, cell-to-cell spread inhibitory activity (LLC-MK2 cells stably expressing TMPRSS2) strictly less than 0.05 µg/mL?
Reply: yes

Query: Could you please tell me whether IC50, cell-to-cell spread inhibitory activity (LLC-MK2 cells stably expressing TMPRSS2) recorded for EV046113 (antibody, human IgG1, kappa, V domains shown) VH: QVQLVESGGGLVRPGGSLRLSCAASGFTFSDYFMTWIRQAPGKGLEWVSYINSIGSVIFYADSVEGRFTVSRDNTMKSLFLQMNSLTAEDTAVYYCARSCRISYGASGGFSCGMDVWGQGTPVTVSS VL: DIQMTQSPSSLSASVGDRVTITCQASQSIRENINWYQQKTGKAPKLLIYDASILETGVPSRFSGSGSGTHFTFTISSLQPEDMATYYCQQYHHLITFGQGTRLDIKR is less than 0.05 µg/mL?
Reply: no

Query: Record EV046120 (antibody, human IgG1, lambda, V domains shown) VH: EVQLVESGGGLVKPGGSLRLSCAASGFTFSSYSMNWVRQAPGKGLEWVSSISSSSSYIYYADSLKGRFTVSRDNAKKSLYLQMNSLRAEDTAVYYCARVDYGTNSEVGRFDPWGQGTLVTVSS VL: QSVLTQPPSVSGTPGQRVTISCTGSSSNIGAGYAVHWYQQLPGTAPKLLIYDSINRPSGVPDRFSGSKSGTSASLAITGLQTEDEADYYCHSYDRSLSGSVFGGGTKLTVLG : is its IC50, cell-to-cell spread inhibitory activity (LLC-MK2 cells stably expressing TMPRSS2) strictly below 0.05 µg/mL?
Reply: yes

Query: State whether 0.05 µg/mL exceeds IC50, cell-to-cell spread inhibitory activity (LLC-MK2 cells stably expressing TMPRSS2) recorded for EV046143 (antibody, human IgG1, kappa, V domains shown) VH: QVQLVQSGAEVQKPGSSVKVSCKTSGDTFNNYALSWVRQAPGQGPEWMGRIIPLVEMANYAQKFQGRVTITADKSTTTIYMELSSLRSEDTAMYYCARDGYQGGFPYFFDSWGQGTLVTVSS VL: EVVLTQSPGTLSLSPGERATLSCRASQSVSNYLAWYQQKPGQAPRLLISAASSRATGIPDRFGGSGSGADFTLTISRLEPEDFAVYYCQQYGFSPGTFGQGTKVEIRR .
Reply: no

Query: For EV046141 (antibody, human IgG1, lambda, V domains shown) VH: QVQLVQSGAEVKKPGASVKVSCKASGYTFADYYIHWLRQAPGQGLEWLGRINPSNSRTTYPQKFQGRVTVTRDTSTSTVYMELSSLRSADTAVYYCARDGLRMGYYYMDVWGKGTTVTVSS VL: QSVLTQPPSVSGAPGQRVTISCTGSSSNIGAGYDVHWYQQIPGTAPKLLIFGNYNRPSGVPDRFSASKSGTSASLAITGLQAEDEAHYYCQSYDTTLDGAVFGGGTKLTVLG , is the recorded IC50, cell-to-cell spread inhibitory activity (LLC-MK2 cells stably expressing TMPRSS2) below the cut-off of 0.05 µg/mL?
Reply: yes

Query: Problem: For the binder EV046142 (antibody, human IgG1, lambda, V domains shown) VH: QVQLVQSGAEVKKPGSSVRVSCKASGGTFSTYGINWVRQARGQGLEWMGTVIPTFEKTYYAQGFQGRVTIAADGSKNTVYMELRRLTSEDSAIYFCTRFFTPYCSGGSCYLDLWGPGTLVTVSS VL: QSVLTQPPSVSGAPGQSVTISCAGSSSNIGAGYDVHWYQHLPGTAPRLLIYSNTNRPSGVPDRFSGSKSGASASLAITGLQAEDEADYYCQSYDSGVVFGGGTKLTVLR , is IC50, cell-to-cell spread inhibitory activity (LLC-MK2 cells stably expressing TMPRSS2) under 0.05 µg/mL?
Reply: yes

Query: I wonder whether EV046135 (antibody, human IgG1, lambda, V domains shown) VH: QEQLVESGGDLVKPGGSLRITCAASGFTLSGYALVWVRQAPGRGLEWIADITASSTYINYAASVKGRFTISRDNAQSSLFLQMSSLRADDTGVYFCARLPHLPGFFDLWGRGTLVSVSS VL: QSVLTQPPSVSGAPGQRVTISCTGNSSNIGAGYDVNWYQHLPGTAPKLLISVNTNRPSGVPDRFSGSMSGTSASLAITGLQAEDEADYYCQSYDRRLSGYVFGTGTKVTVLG has IC50, cell-to-cell spread inhibitory activity (LLC-MK2 cells stably expressing TMPRSS2) below 0.05 µg/mL. Can you tell?
Reply: yes
